Recorded values, source patent US8178506B2.

# System: HeLa cells
# Experiment Notes: Cell cycle assay in HeLa cells
# Type: cell-based, human
# Experimental Conditions: HeLa cells, 150 nM oligomeric compound, 24 hours, relative to untreated control (UTC = 100)
In the oligonucleotide strings, read from the 5' end, every base follows the letter of its sugar. An asterisk marks phosphorothioate; unmarked linkages are phosphodiester. Other units and linkages are bracketed, terminal groups are in braces. A string of capitals states the bases alone. e = 2'-O-(2-methoxyethyl) (MOE); [5mC] = 5-methylcytosine; d = 2'-deoxy (DNA)
Classification field: YES = % cells in cell cycle phase S at or over 90%; NO = % cells in cell cycle phase S under 90%.

Could you tell me if the measured % cells in cell cycle phase S of 328780 (antisense eT*eG*eT*e[5mC]*eA*dT*dG*dG*dA*d[5mC]*dA*dG*dG*dA*dT*eG*eA*eA*eT*eA) [compound 328780] reaches 90% or more?
NO

Threshold query (% cells in cell cycle phase S >= 90%) on 327903 (antisense eA*eA*e[5mC]*eT*eA*eT*eA*e[5mC]*eA*eA*e[5mC]*e[5mC]*eT*eA*e[5mC]*eT*eA*e[5mC]*e[5mC]*eT*e[5mC]*eA) [compound 327903]
YES

# bool: % cells in cell cycle phase S of 328396 (antisense e[5mC]*eT*eG*eG*eT*dT*dG*dG*dG*dT*dA*dT*dG*dA*dG*eA*e[5mC]*eA*eG*eA) [compound 328396] >= 90%
NO

State whether the measured % cells in cell cycle phase S reaches 90%, counting equality as reaching it, for 328759 (antisense eG*eA*eG*eG*eG*dA*dT*dT*dG*dT*dA*dT*dG*dA*dA*e[5mC]*eA*eT*e[5mC]*eT) [compound 328759]
NO

Hi, just wondering whether 327878 (antisense e[5mC]*eT*eA*eG*eT*eG*eG*eT*e[5mC]*e[5mC]*eT*eA*eA*eA*e[5mC]*eA*eT*eT*eT*e[5mC]*eA*e[5mC]) [compound 327878] shows % cells in cell cycle phase S of 90% or higher.
YES

hey, is % cells in cell cycle phase S for this one >= 90%? 327946 (antisense eA*eG*eG*e[5mC]*eG*eA*eA*eG*eG*eA*eT*eG*eA*e[5mC]*eA*eA*eA*eG*eG*eG*eA*eA) [compound 327946]
NO

Please tell me: is the substance 328119 (antisense eA*eA*eT*eA*eA*e[5mC]*eA*e[5mC]*eA*e[5mC]*eA*eT*e[5mC]*e[5mC]*eA*e[5mC]*eT*eT*eT*eA*eA) [compound 328119] at or over 90% in terms of % cells in cell cycle phase S?
YES

Would you say 327896 (antisense eA*e[5mC]*eA*eG*eT*eT*e[5mC]*eT*eT*e[5mC]*eA*eA*e[5mC]*eT*eG*eG*e[5mC]*eA*eG*e[5mC]*eT*eT) [compound 327896] shows % cells in cell cycle phase S at minimum 90%?
YES

Could you verify whether the entry 327922 (antisense eT*e[5mC]*eA*eG*eT*eT*eT*eT*eG*e[5mC]*eA*eT*eG*eG*eA*eT*eT*eT*eG*e[5mC]*eA*e[5mC]*eA) [compound 327922] shows % cells in cell cycle phase S of no less than 90%?
YES

Is % cells in cell cycle phase S at least 90%? Consider 345373 (AGCCTATCCTGGATTACTTGAA; sugars from the 5' end e5 d10 e7, all phosphorothioate, methylation of C not given here) [compound 345373]
YES

Reported % cells in cell cycle phase S at or above 90%? 328727 (antisense e[5mC]*eT*eG*e[5mC]*eT*d[5mC]*d[5mC]*dA*dG*dA*dG*d[5mC]*d[5mC]*d[5mC]*dG*eA*eG*eT*e[5mC]*eG) [compound 328727]
NO
